TESTED_SYSTEM: human carboxylesterase CES3 (Homo sapiens, UniProt Q6UWW8)
Sequence (Q6UWW8 27-571): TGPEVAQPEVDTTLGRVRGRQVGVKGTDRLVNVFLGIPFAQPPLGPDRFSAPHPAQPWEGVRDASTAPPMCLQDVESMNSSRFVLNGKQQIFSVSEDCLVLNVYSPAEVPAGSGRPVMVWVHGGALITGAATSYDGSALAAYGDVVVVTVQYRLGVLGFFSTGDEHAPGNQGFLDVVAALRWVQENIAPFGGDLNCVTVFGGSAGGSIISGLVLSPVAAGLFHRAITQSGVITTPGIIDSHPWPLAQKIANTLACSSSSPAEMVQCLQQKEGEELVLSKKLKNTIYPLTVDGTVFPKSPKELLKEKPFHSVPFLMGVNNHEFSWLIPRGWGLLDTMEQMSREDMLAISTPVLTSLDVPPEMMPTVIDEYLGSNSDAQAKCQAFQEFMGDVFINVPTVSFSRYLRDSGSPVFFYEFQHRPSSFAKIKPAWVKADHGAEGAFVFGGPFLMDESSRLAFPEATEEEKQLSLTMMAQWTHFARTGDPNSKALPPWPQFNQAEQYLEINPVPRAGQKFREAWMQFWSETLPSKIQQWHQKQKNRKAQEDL

# COMPOUND, IC50 / nM
records = [
    ("CCOP(=S)(OCC)Oc1ccc([N+](=O)[O-])cc1 [Parathion, parathion]", 4.9),
    ("CCOP(=S)(OCC)SCSc1ccc(Cl)cc1 [Carbophenothion, carbophenothion]", 110),
]

* * *

TESTED_SYSTEM: human carboxylesterase CES1 (Homo sapiens)

# MOLECULE, Ki, nM
records = [
    ("Oc1cc(Cl)ccc1Oc1ccc(Cl)cc1Cl [Triclosan, triclosan]", 105),
]

* * *

TESTED_SYSTEM: human carboxylesterase CES1 (Homo sapiens, UniProt P23141)
Sequence (P23141 18-567): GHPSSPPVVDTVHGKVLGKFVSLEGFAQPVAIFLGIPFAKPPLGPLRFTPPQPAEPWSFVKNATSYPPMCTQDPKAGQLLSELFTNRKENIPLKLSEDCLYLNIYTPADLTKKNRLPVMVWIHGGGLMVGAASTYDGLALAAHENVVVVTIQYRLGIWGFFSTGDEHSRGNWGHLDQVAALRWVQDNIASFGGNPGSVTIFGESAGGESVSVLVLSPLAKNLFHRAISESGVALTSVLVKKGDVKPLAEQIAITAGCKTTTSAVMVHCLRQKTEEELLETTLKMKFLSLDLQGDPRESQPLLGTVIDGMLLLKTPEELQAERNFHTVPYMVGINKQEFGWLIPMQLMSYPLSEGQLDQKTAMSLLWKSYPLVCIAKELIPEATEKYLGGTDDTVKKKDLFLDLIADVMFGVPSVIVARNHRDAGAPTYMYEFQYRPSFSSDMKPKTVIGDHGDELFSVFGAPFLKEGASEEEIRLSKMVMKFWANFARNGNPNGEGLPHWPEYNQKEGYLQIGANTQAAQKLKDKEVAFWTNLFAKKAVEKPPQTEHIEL
VALUE_TYPE: IC50

# MOLECULE, RESULT
measured = [
    ("Oc1cc(Cl)ccc1Oc1ccc(Cl)cc1Cl", "210 nM"),
    ("O=P(Oc1ccccc1)(Oc1ccccc1)Oc1ccccc1 [TPP, triphenyl phosphate]", "43 nM"),
]
